Please respond with reported half-life for every item in the list.
Test: Stability in human plasma
Assay type: in vitro ADME
Settings: human, plasma; 2 μM, 37° C.; read-out: half-life (t1/2) in human plasma
Where a SMILES comes first, the peptide text is derived from it. [ ]: non-standard residue; d: D form. ξ: configuration not given here. ξαMeBip(2'-Et,4'-OMe) = CCc1cc(OC)ccc1-c1ccc(CC(C)(N)C(=O)O)cc1; ξαMePhe(2,6-F2) = CC(N)(Cc1c(F)cccc1F)C(=O)O; ξαMe(hhPhe) = CC(N)(CCCc1ccccc1)C(=O)O; ξhhPhe = NC(CCCc1ccccc1)C(=O)O; ξαMeD = CC(N)(CC(=O)O)C(=O)O; ξαMeS = CC(N)(CO)C(=O)O

Some compounds with recorded half-life:
INSERT INTO results (compound, test_value) VALUES
  ('CCc1cc(OC)ccc1-c1ccc(CC(C)(NC(=O)C(C)(CC(=O)O)NC(=O)[C@H](CO)NC(=O)[C@@H](NC(=O)[C@H](Cc2ccccc2)NC(=O)[C@@H](NC(=O)CNC(=O)[C@H](CCC(=O)O)NC(=O)[C@H](C)NC(=O)[C@H](Cc2c[nH]cn2)NC(=O)[C@@H](N)C(C)C)[C@@H](C)O)[C@@H](C)O)C(=O)NC(CCCc2ccccc2)C(N)=O)cc1 (stereo partly drawn) [compound 62] (H-VHAEGTFTS[ξαMeD][ξαMeBip(2''-Et,4''-OMe)][ξhhPhe]-NH2)', '> 24 h'),
  ('CCc1cc(OC)ccc1-c1ccc(CC(C)(NC(=O)[C@H](CC(=O)O)NC(=O)[C@H](CO)NC(=O)[C@@H](NC(=O)[C@H](Cc2ccccc2)NC(=O)[C@@H](NC(=O)CNC(=O)[C@H](CCC(N)=O)NC(=O)[C@H](CO)NC(=O)[C@H](Cc2c[nH]cn2)NC(=O)[C@@H](NC(=O)[C@@H](N)C(C)C)C(C)C)[C@@H](C)O)[C@@H](C)O)C(=O)NC(CCCc2ccccc2)C(N)=O)cc1 (stereo partly drawn) [compound 205] (H-VVHSQGTFTSD[ξαMeBip(2''-Et,4''-OMe)][ξhhPhe]-NH2)', '> 24 h');

Now, please, on to the next compound.
Query :: Name the recorded half-life of the compound listed here: CCc1cc(OC)ccc1-c1ccc(CC(C)(NC(=O)[C@H](CC(=O)O)NC(=O)C(C)(CO)NC(=O)[C@@H](NC(=O)C(C)(Cc2c(F)cccc2F)NC(=O)[C@@H](NC(=O)CNC(=O)[C@H](CCC(=O)O)NC(=O)[C@H](C)NC(=O)[C@H](Cc2c[nH]cn2)NC(=O)[C@@H](N)C(C)C)[C@@H](C)O)[C@@H](C)O)C(=O)NC(C)(CCCc2ccccc2)C(N)=O)cc1 (stereo partly drawn) [compound 178] (H-VHAEGT[ξαMePhe(2,6-F2)]T[ξαMeS]D[ξαMeBip(2'-Et,4'-OMe)][ξαMe(hhPhe)]-NH2)
Result :: > 24 h
